The origin of these recorded values is patent US10266544B2.

# Test system: Burkholderia cepacia (ATCC 25416)
# Protocol Description: MIC determination, microbroth dilution
# Format: cell-based
# Recorded Conditions: Burkholderia cepacia, ATCC25416, read-out: MIC B.c., Burkholderia cepacia (ATCC 25416)
Counter-ions that a name gives are not always drawn.
Assay Readout: MIC

Here are 8 compounds together with their reported answers.
Compound	MIC
CN[C@@H]1[C@H](O)[C@H](NC)[C@H]2O[C@]3(O)[C@H](O[C@@H]2[C@H]1O)O[C@H](C)C[C@@]3(O)CNCCc1ccc(C)c(C)c1 [compound 55, Trihydrochloride]	> 200 µg/mL
CN[C@@H]1[C@H](O)[C@H](NC)[C@H]2O[C@]3(O)[C@H](O[C@@H]2[C@H]1O)O[C@H](C)C[C@@]3(O)CNCc1nc2ccccc2s1 [compound 34, Trihydrobromide]	> 200 µg/mL
CN[C@@H]1[C@H](O)[C@H](NC)[C@H]2O[C@]3(O)[C@H](O[C@@H]2[C@H]1O)O[C@H](C)C[C@@]3(O)CNCc1ccc(C(C)C)cc1 [compound 23, Trihydrochloride]	> 200 µg/mL
CN[C@@H]1[C@H](O)[C@H](NC)[C@H]2O[C@]3(O)[C@H](O[C@@H]2[C@H]1O)O[C@H](C)C[C@@]3(O)CNCc1cccnc1	≥ 200 µg/mL
CN[C@@H]1[C@H](O)[C@H](NC)[C@H]2O[C@]3(O)[C@H](O[C@@H]2[C@H]1O)O[C@H](C)C[C@@]3(O)CNCc1ccc(Cl)s1 [compound 21, Trihydrobromide]	200 µg/mL
CCc1ccc(CNC[C@]2(O)C[C@@H](C)O[C@H]3O[C@@H]4[C@@H](O)[C@H](NC)[C@H](O)[C@H](NC)[C@H]4O[C@]32O)cc1 [compound 3, Trihydrochloride]	> 200 µg/mL
CN[C@@H]1[C@H](O)[C@H](NC)[C@H]2O[C@]3(O)[C@H](O[C@@H]2[C@H]1O)O[C@H](C)C[C@]3(O)CNCCc1ccccc1 [compound 27, Trihydrochloride]	200 µg/mL
CN[C@@H]1[C@H](O)[C@H](NC)[C@H]2O[C@]3(O)[C@H](O[C@@H]2[C@H]1O)O[C@H](C)C[C@@]3(O)CNCc1ccco1 [compound 8, Trihydrochloride]	≥ 200 µg/mL

# query: MIC of entry `CN[C@@H]1[C@H](O)[C@H](NC)[C@H]2O[C@]3(O)[C@H](O[C@@H]2[C@H]1O)O[C@H](C)C[C@@]3(O)CNCc1cccc(C)n1`
> 200 µg/mL

What value of MIC has been recorded for this entry: CN[C@@H]1[C@H](O)[C@H](NC)[C@H]2O[C@]3(O)[C@H](O[C@@H]2[C@H]1O)O[C@H](C)C[C@@]3(O)CNCc1ccccc1 [compound 1, Trihydrochloride]
≥ 200 µg/mL

----------
# Tested on: Legionella pneumophila (ATCC 33153)
# Protocol Description: microbe, parasite or virus in culture
# Format: cell-based
# Recorded Conditions: ATCC33153, 72 h, read-out: Zone of inhibition L.p.
Where a name gives a salt, the structure may show the parent alone.
# zone of inhibition at 4 µg/disc per record follows
Your answer should be a plain number; it is taken to be in mm.

Molecule	zone of inhibition at 4 µg/disc (mm)
CN[C@@H]1[C@H](O)[C@H](NC)[C@H]2O[C@]3(O)[C@H](O[C@@H]2[C@H]1O)O[C@H](C)C[C@@]3(O)CNCc1ccc(C)cc1C [compound 24, Trihydrochloride]	18
CN[C@@H]1[C@H](O)[C@H](NC)[C@H]2O[C@]3(O)[C@H](O[C@@H]2[C@H]1O)O[C@H](C)C[C@@]3(O)CNCCc1ccc[nH]1 [compound 62]	12
CN[C@@H]1[C@H](O)[C@H](NC)[C@H]2O[C@]3(O)[C@H](O[C@@H]2[C@H]1O)O[C@H](C)C[C@@]3(O)CNCc1cccc(F)c1 [compound 15, Trihydrochloride]	41
CN[C@@H]1[C@H](O)[C@H](NC)[C@H]2O[C@]3(O)[C@H](O[C@@H]2[C@H]1O)O[C@H](C)C[C@@]3(O)CNCc1cccnc1 [compound 7]	42
CN[C@@H]1[C@H](O)[C@H](NC)[C@H]2O[C@]3(O)[C@H](O[C@@H]2[C@H]1O)O[C@H](C)C[C@@]3(O)CNCc1ccc(OC(F)(F)F)cc1 [compound 11, Trihydrochloride]	21

Give the measured zone of inhibition at 4 µg/disc of CN[C@@H]1[C@H](O)[C@H](NC)[C@H]2O[C@]3(O)[C@H](O[C@@H]2[C@H]1O)O[C@H](C)C[C@@]3(O)CNCCc1nccs1 [compound 64] .
33

For the molecule CN[C@@H]1[C@H](O)[C@H](NC)[C@H]2O[C@]3(O)[C@H](O[C@@H]2[C@H]1O)O[C@H](C)C[C@@]3(O)CNCCc1cccs1 [compound 61, trihydrobromide] , what zone of inhibition at 4 µg/disc is on record?
30

Can you look up the measured zone of inhibition at 4 µg/disc of CN[C@@H]1[C@H](O)[C@H](NC)[C@H]2O[C@]3(O)[C@H](O[C@@H]2[C@H]1O)O[C@H](C)C[C@@]3(O)CNCc1ccc(C(C)C)cc1 [compound 23, Trihydrochloride] for me?
12

# get_value(readout='zone of inhibition at 4 µg/disc', item= CN[C@@H]1[C@H](O)[C@H](NC)[C@H]2O[C@]3(O)[C@H](O[C@@H]2[C@H]1O)O[C@H](C)C[C@@]3(O)CNCc1ccccc1Cl [compound 56, Trihydrobromide] )
0
